Assay: yeast display, Sf9 membrane polyspecificity reagent, FACS + sequencing; frameworks hold sequencing errors
result type: polyreactivity (PSR sort gate)

record sequence | polyreactivity (PSR sort gate)
QEQLVESGGGLVQAGGSLRLSCAATGLTITDYAMGWYRQAPGKERELDAGINTRGTSRYSADSVKGRFTISRDNAKNTVYFQMFSLNPEDTAVYYCDSEYFGYWYGIQYDYWGQGTQVTVSS | high polyreactivity
QVQLVETGGGLVQAGGSLRLSCAASARTFVPYAMGWYRPAPGKERELVADITDGDVSTYADSVNGRFTISRDKAKNTVYLQMNSLKPDDNAVYYCAAQYRRLVTRWPVTFGYWGQGTQVTVSS | low polyreactivity
QVQLVESGGGLVQAGGSLRLSCAASGRTFLYVMGWYRQAPGKERELVAAISRGGSTSYADSVKGRFTISRDNAKNTVYLQMNSLKPEDTAVYYCAATNYWRDGYWGQGTQVTVSS | high polyreactivity
QVQLVESGGGLVQAGGSLRLSCAASGRTFWYYTMGWYRQAPGKERELVASITYRGGSTYYADSVKGRFTISRDNAKNTVYLQMNSLKPEDTAVYYCNARSGNRYGPRYDYWGQGTQVTVSS | high polyreactivity

# ---- query sequence ----
What does the data say about its polyreactivity (PSR sort gate)? Entry: QVQLVESGGGLVQAGGSLRLSCAASGITFGRNTMGWYRQAPGKERELVAAIDSGGNTYADSVKGRFTISRDNAKNTVYLQMNSLKPEDTAVYYCAVDGGEFSSYGYWGQGTEVTVSS
low polyreactivity

---

Assay: yeast display, Sf9 membrane polyspecificity reagent, FACS + sequencing; frameworks hold sequencing errors
result type: polyreactivity (PSR sort gate)

Recorded results for 6 sequences are shown here.
record sequence | polyreactivity (PSR sort gate)
QVQLVESGGGLVQAGASLRLSCAASGRTFGYYAMGWYRQAPGKERELVATISRRGGRTYYADSVKGRFTISRDNAKNTVYLQMNSLKPEDTAVYYCNKYLASYSYSDLVYWGQGTQVTVSS | high polyreactivity
QVQLVESGGGLVQAGGSLRLSCAASGSTFPDNAMGWYRQAPGKERELVAAISFSSGSTYYADSVKGRFTISRDNAKNTVYLQMNSLKPEDTAVYYCAADSYPAYLGFVGFDYWGQGTQVTVSS | low polyreactivity
QVQLVESGGGLVQAGGSLRLSCAASGSIFYSYAMGWSRQAPGKERELFAAISYSTTSTYYADSVKGRFTISCDNAKNTVYLQMKSLKPEDTAVYYCAVDYIIWYDGYLLYYWGQGTQVTVSS | low polyreactivity
QVQLVESGGGLVQAGCSLRLSCAASGYIFYNAMGWYRQAPGKERELVAAITSGGSTNYADSVKGRFTISRDNAKNTVYFQMNSLKPEDTADYYCNAVVYSPYRYEYWGQGTQVTVSS | low polyreactivity
QLQLVESGGGLVQAGGSLRLSCAASGRTFYRNGKGWYIQAPGKERELVATISSGGITNYADSVKGRFTISRDNAKNTVYLQMNSLKPEDTAVYYCNAKKAYYGRGMNYWGQGTQVTVSS | low polyreactivity
QVQLVESGGGLVQAGASLRLSCAASGFTFGWYAMGWSRQARGKERELVAAISYSGGSTYYADSVKGRFTISRDNAKNTVYLQMISLKPEDTAVYYCAALYTGDSGYWGQGTQVTVSS | high polyreactivity

What does the data say about its polyreactivity (PSR sort gate)? Entry: QVQLVESGGGLVQAGGSLRLSCAASGFTFTGYAMGWYRQAPGKERELVAAISQSGGSTYADSVKGRFTISRDNAKNTVYLQMNSLKPEDTAVYYCNAATHGPFDYWGQGTQVTVSS
low polyreactivity

---

Assay: yeast display, Sf9 membrane polyspecificity reagent, FACS + sequencing; frameworks hold sequencing errors
result type: polyreactivity (PSR sort gate)

Recorded results for 4 sequences are shown here.
record sequence | experimental value
QVQLVESGGGLVQAGGSLRLSCAASGRNFYVYGLGWYRQAPGKERELVASITYRGGSTSYADSVKGRFTISRDNAKNTVYLQMNSLKPEDTAVYYCNADTYYRYDYWGQGTQVTVSS | high polyreactivity
QVQLVESGGGLVQAGGSLRLSCAASGFTFYDYAMGWYRQAPGKERELVAVITRRGGSTYYADSVKRRFTISRDNAKKTVDLQMNSLKPEDTAVYDCAADWRGWSFVRGDDYWGHGTQVTVSS | high polyreactivity
QDQLVESAGGLVQAGGSLRLSCAATGLNLVPNTMGLYRQAPGKETQLVAAISYSGGGTYYADSVKGRFTISRDNAKNTVYLQMNSLKPEDTAVYYCAAYVKREYAPYGYWGQGTQVTVSS | low polyreactivity
QVQLVESGGGLVQAGGSLRLSCAASGRIFIGNAMGWSRQAPGKERELVAAISSSGGSTYYADSVKGRFTISRDNAKNTVYLQMNSLKPEDTAVYYCAAETKNAPRFYPYSNEGYYYWGHGTQVTVSS | low polyreactivity

What does the data say about its polyreactivity (PSR sort gate)? Entry: QVQLVESGARLVQEGGSLRLSCAASGSIFGRYVMGGYRQEPGKEREFVAAITYSGSSTYYADSVKGRFTISRDNAKNTVYLQMNSLKPEDSAVYYCNTYPGSFYWMGYWGQGTQVTVSS
high polyreactivity

---

Assay: yeast display, Sf9 membrane polyspecificity reagent, FACS + sequencing; frameworks hold sequencing errors
result type: polyreactivity (PSR sort gate)

record sequence | experimental value
QVQLVESGGGLVQAGGSLRLSCAASGNTFATYAMGWYRQAPGKERELVAAITWSGGSTYYADSVKGRFTISRDNAKNNVYLQMNSLKPEDTAVYYCAADYLYYAIPAYYWDTGYDYWGQGTQVTVSS | low polyreactivity
QVQLVESGGGLVQAGGSLRLTCAASGRTLVPYVMGWYRQAPGKERELVASITSGGSTYYADSVKGRFTISRDNAKNTVYLQMNSLKPEDTAVYYCATRQSAERWGYYYWGQGTQVTVSS | low polyreactivity
QVQLVESGGGLVQAGGSLRLSCAASGRIFFYYAMGWYRQAPGKEREMVAAISWSGSSTYYADSVKGRFTISRDNAKNTVYLQMNSLKPEDTAVYYCAADYYIDYFYYDYWGQGTQVTVSS | high polyreactivity
QVQLVESGGGLVQAGGSLRLSCAASGFNIGRNAMGWYRQAPGKERELVAGISISGGSTYYADSVKGRFTISRDNAKNTVYLQMNSLKPEDTAVYYCAAEYAYSLDPEEDYWGQGTQVTVSS | high polyreactivity
QVQLVESGGGLVQAGGSLRLSCAASGFIFTPYAMGWYRQAPGKERELVAAIRSGTSTNYADSVKGRFTISRDNAKNTVYLQMNSLKPEDTAVYYCAAEEGLIDGRAWYGYWGQGTQVTVSS | low polyreactivity
QVQLVESGGGLVQAGGSLRLSCAASGYTFPLYAMGWYIQAPGKETELVADINIGGASTYYADSVKGRFTISRDNAKNTVYLQMNSLKPEDTAVYYCAKEYYDGYFPTLDYDYWGQGTQVTVSS | low polyreactivity
QVQLVESGGGLVQAGGSLRLSCAASGLTFSYYAMGWYRQAPGKERELVAGISSSGGTTYYADSVKGRFTISRDNAKNTVYLQMNSLKPEDTAVYYCATRRHYGSFWYDYWGQGTQVTVSS | high polyreactivity
QLQLVESGGGLVQAGGSLLLSCAASGITFPANAMGWYRQAPGKERELVAAITGRGGRTYYADSVKGRFTISRYYAKNTVYLQMISLKPEDTAVYYCNAYLWRVTQNYDYWGQGTQVTVSS | high polyreactivity
QVQLVESGGGLVQAGGSLRLSCAASGSIFKAYAMGWYRQAPGKERELVAAITWSAGSTYYADSVKGRFTISRDNAKNTVYLQMNSLKPEDTAVYYCAAEVRGSYYLTGYDYWGQGTQVTVSS | high polyreactivity
QVQLVESGGGLVQAGGSLRLSCAASGRISWGYAMGWYRQAPGKERELVAVINFNGGRTYYADSVKGRFTISRDNAKNTVYLQMNSLKPEDTAVYYCAADSGYEYDYWGQGTQVTVSS | low polyreactivity

What does the data say about its polyreactivity (PSR sort gate)? Entry: QVQLVESGGGLVQAGGSLRLSCAASGNIFYLYAMGCYRQAPGKEREFSTSYADSVKGRFTISRDNAKNTVYLQMNSLKPEDTAVYYCAAYKSRGPYYYLFDYWGQGTQVTVSS
low polyreactivity

---

Experiment: yeast display, Sf9 membrane polyspecificity reagent, FACS + sequencing; frameworks hold sequencing errors
result type: polyreactivity (PSR sort gate)

Recorded results for 4 sequences are shown here.
record sequence | result type | experimental value
QVQLVESGGGLVQAGGSLRLSCAASGSTFTYYAMGWYRQAPGKERELVAAISRSGGNTYYADSVKGRFTISRDNAKNTVYLQMNSLKPEDTAVYYCAAYRQVYGFDYWGQGTQVTVSS | polyreactivity (PSR sort gate) | high polyreactivity
QDQLVESGGGLVQSGGSLRLSCAASGYIFGPYAMGWYRQAPGKEREFVATISGSVGSTYYADSVKGRFTISRDNGKNTVYLQMNSLKPQDTAVYYCNKDHSVYGYEYWGQGTQVTVSS | polyreactivity (PSR sort gate) | low polyreactivity
QVQLVESGGGIVQAGGRLRLSCAASGSTFFKYARGWYRQAPGKERELVATMSGTGGRTYYADSVKGRFTISRDNAKNTVYLQMNSLKPEDTAVYYCAAGIYRPFFYTLDYWGQGTQVTVSS | polyreactivity (PSR sort gate) | low polyreactivity
QVQLVESGVGLVQAGGSLRVSCAASGSICNYYAMVWYRQAPGKERELVATISSGGNTKYADSVKRRFTISRDNAKNTVSLQMNSQKPEDTAVYYCAARWQHSGYRDRYWYDYWGQGTQVTVSS | polyreactivity (PSR sort gate) | low polyreactivity

What does the data say about its polyreactivity (PSR sort gate)? Entry: QVQLVESGGGLVQAGGSLRLSCAASGRIFNIYALGWYRQAPGKERELVAAISGSGSTYYADSVKGRFTISRDNAKNTVYLQMNSLKPEDTAVYYCAARSLVRYYHNANYYPYYYWGQGTQVTVSS
high polyreactivity
